Overview of recorded protein stability index for various variants
B1: FBF1 (parent)
chain: YQRPQDSEDMWGDEDFTFGAYQPT

- Variants of: B1
- assay comment: protein stability index of a GFP-peptide fusion (GPS, HEK-293T) (PSI 1-6); higher = more stable;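 also: lentivirally expressed fusions sorted by FACS into six bins by GFP to DsRed ratio, PSI derived from sequencing read proportions per bin multiplied by bin number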
- condition info: c terminus: a fixed tail appended

[[record]]
mutation_id = "T24P"
assay_readout = "protein stability index"
result = 3.17


Identify measured protein stability index associated with "Y1G"
4.79

Identify measured protein stability index associated with "D15T"
2.43

Identify measured protein stability index associated with "E8M"
2.42

Identify measured protein stability index associated with "D6F"
1.68

Identify measured protein stability index associated with "D9Y"
1.87
